Value source: patent US12285431B2

test system: ZR-75-1 (breast ductal carcinoma, Rb-positive); test: Cellular proliferation assay (CellTiter-Glo), ZR-75-1; format: cell-based; conditions: Homo sapiens, ZR-75-1, 144 h, cell viability after six days, read-out: ZR75-1 Cellular EC50
recordedEndpoint: EC50 (µM)

compound	numericResult
C[C@H]1CN(c2ccc(Nc3ncc4cc5n(c4n3)C3(CCCCC3)CNC5=O)nc2)CCN1CC1CC1	0.245
CC(C)C1CN(c2ccc(Nc3ncc4cc5n(c4n3)C3(CCCCC3)CNC5=O)nc2)CCN1 (stereo not shown)	0.062

1. CC1CN(c2ccc(Nc3ncc4cc5n(c4n3)C3(CCCCC3)CNC5=O)nc2)CC(C)N1CC1CC1 (stereo not shown)
2. C[C@@H]1CN(c2ccc(Nc3ncc4cc5n(c4n3)C3(CCCCC3)CNC5=O)nc2)CCN1C[C@@H](C)O
Q. Lower EC50: 1 or 2 ? Answer by stating the label of the chosen item.
A. 2
(2: 0.082 µM, 1: 0.229 µM)

----------
test system: MCF7 (breast adenocarcinoma, Rb-positive); experiment: Cellular proliferation assay (CellTiter-Glo), MCF7; assay type: cell-based; conditions: Homo sapiens, MCF7, 144 h, cell viability after six days
recordedEndpoint: EC50 (nM)

compound	targetSystem	EC50 (nM)
C[C@H](O)CN1CCN(c2ccc(Nc3ncc4cc5n(c4n3)C3(CCCCC3)CNC5=O)nc2)CC1	MCF7 (breast adenocarcinoma, Rb-positive)	75
CC(C)N1CCN(Cc2ccc(Nc3ncc4cc5n(c4n3)C3(CCCCC3)CNC5=O)nc2)CC1	MCF7 (breast adenocarcinoma, Rb-positive)	216
CCN1[C@H](C)CN(c2ccc(Nc3ncc4cc5n(c4n3)C3(CCCCC3)CNC5=O)nc2)C[C@@H]1C	MCF7 (breast adenocarcinoma, Rb-positive)	140
C[C@H](O)CN1[C@H](C)CN(c2ccc(Nc3ncc4cc5n(c4n3)C3(CCCCC3)CNC5=O)nc2)C[C@@H]1C	MCF7 (breast adenocarcinoma, Rb-positive)	141
C[C@H]1CN(c2ccc(Nc3ncc4cc5n(c4n3)C3(CCCCC3)CNC5=O)nc2)CCN1	MCF7 (breast adenocarcinoma, Rb-positive)	333

a. C[C@H](O)CN1CCN(c2ccc(Nc3ncc4cc5n(c4n3)C3(CCCCC3)CNC5=O)nc2)C[C@@H]1C
b. CC(C)N1CCN(c2ccc(Nc3ncc4cc5n(c4n3)C3(CCCCC3)CNC5=O)nc2)CC1C (centres unmarked)
c. CN(C)C1CCN(c2ccc(Nc3ncc4cc5n(c4n3)C3(CCCCC3)CNC5=O)nc2)CC1
d. CC1CN(c2ccc(Nc3ncc4cc5n(c4n3)C3(CCCCC3)CNC5=O)nc2)CCN1CC(C)(C)O (centres unmarked)
e. CC(C)(O)CN1CCN(c2ccc(Nc3ncc4cc5n(c4n3)C3(CCCC3)CNC5=O)nc2)CC1
Q. Let's sort these by EC50, smallest first. Go ahead? I would appreciate it if you listed the labels in the requested order.
A. c, a, b, d, e
(c: 56 nM, a: 88 nM, b: 164 nM, d: 294 nM, e: 453 nM)

a. C[C@@H]1CN(c2ccc(Nc3ncc4cc5n(c4n3)C3(CCCCC3)CNC5=O)nc2)C[C@H](C)N1
b. CCN(CC)C1CCN(C(=O)c2ccc(Nc3ncc4cc5n(c4n3)C3(CCCCC3)CNC5=O)nc2)C1 (centres unmarked)
Q. Lower value for measured EC50? Options: a , b // return label of chosen record
A. a

P. CC1CN(c2ccc(Nc3ncc4cc5n(c4n3)C3(CCCCC3)CNC5=O)nc2)CC(C)N1CC1CC1 (centres unmarked)
Q. O=C1NCC2(CCCCC2)n2c1cc1cnc(Nc3ccc(N4CCNCC4)cn3)nc12
Q. Just curious, which one has the larger EC50 reading, P or Q ? Respond with the label that goes with your answer.
A. P
(P: 120 nM, Q: 49 nM)

----------
Test system: HS68 cells
Experiment: G1 arrest (cellular G1 and S-phase) assay, propidium iodide flow cytometry
Type: cell-based, human
Settings: Homo sapiens, Hs68, HS68 cells
Protocol: HS68 cells (human skin fibroblast cell line (Rb-positive)) were stained with propidium iodide staining solution and run on Dako Cyan Flow Cytometer. The fraction of cells in G0-G1 DNA cell cycle versus the fraction in S-phase DNA cell cycle was determined using FlowJo 7.2.2 analysis. The compounds listed in Table 1 were tested for their ability to arrest HS68 cells at the G1 phase of the cell cycle.
recordedEndpoint: EC50 (µM)

The examples below pair each entry with its known result.
compound	EC50 (µM)
CC(C)N1CCN(c2ccc(Nc3ncc4cc5n(c4n3)C3(CCCCC3)CNC5=O)nc2)C[C@H]1C [L]	0.065
CC(C)(C)CCN1CCN(c2ccc(Nc3ncc4cc5n(c4n3)C3(CCCC3)CNC5=O)nc2)CC1 [KKK]	0.19

P. C[C@@H]1CN(c2ccc(Nc3ncc4cc5n(c4n3)C3(CCCCC3)CNC5=O)nc2)C[C@H](C)N1 [P]
Q. O=C1NCC2(CCCCC2)n2c1cc1cnc(Nc3ccc(C(=O)N4CCNCC4)cn3)nc12 [Y]
Q. Looking only at measured EC50, which entry is lower, P or Q ? State your choice using its label.
A. P
(P: 0.03 µM, Q: 0.35 µM)

----------
Tested on: HS68 cells
Experiment: G1 arrest (cellular G1 and S-phase) assay, propidium iodide flow cytometry
Assay type: cell-based, human
Conditions: HS68 cells
Procedure: HS68 cells (human skin fibroblast cell line (Rb-positive)) were stained with propidium iodide staining solution and run on Dako Cyan Flow Cytometer. The fraction of cells in G0-G1 DNA cell cycle versus the fraction in S-phase DNA cell cycle was determined using FlowJo 7.2.2 analysis. The compounds listed in Table 1 were tested for their ability to arrest HS68 cells at the G1 phase of the cell cycle.
recordedEndpoint: pEC50
Interpret pEC50 as the negative base-10 log of the concentration measured in mol/L.

The observed pEC50 for CCN(CC)C1CCN(c2ccc(Nc3ncc4cc5n(c4n3)C3(CCCCC3)CNC5=O)nc2)C1 (stereo not shown) [UU] when tested with HS68 cells stands at 6.52

----------
Tested on: HS68 cells
Assay: G1 arrest (cellular G1 and S-phase) assay, propidium iodide flow cytometry
Format: cell-based, human
Conditions: Homo sapiens, Hs68, HS68 cells
Description: HS68 cells (human skin fibroblast cell line (Rb-positive)) were stained with propidium iodide staining solution and run on Dako Cyan Flow Cytometer. The fraction of cells in G0-G1 DNA cell cycle versus the fraction in S-phase DNA cell cycle was determined using FlowJo 7.2.2 analysis. The compounds listed in Table 1 were tested for their ability to arrest HS68 cells at the G1 phase of the cell cycle.
pEC50: −log10 of the molar value.
recordedEndpoint: pEC50

Use the examples below as a reference point.
CC(C)N1CCN(c2ccc(Nc3ncc4cc5n(c4n3)C3(CCCC3)CNC5=O)nc2)CC1 6.60
C[C@@H]1CN(c2ccc(Nc3ncc4cc5n(c4n3)C3(CCCCC3)CNC5=O)nc2)C[C@H](C)N1C[C@@H](C)O 7.00
CC1(C)CN(c2ccc(Nc3ncc4cc5n(c4n3)C3(CCCCC3)CNC5=O)nc2)CCN1 7.10
CN1CCN(c2ccc(Nc3ncc4cc5n(c4n3)C3(CCCCC3)CNC5=O)nc2)CC1(C)C 7.30
C[C@@H]1CN(c2ccc(Nc3ncc4cc5n(c4n3)C3(CCCCC3)CNC5=O)nc2)CCN1 7.15
O=C1NCC2(CCCCC2)n2c1cc1cnc(Nc3ccc(N4CCN(CC5CC5)CC4)cn3)nc12 6.96

a. CC(C)N1CCN(c2ccc(Nc3ncc4cc5n(c4n3)C3(CCCCC3)CNC5=O)nc2)C[C@@H]1C
b. CN(C)C1CCN(c2ccc(Nc3ncc4cc5n(c4n3)C3(CCCCC3)CNC5=O)nc2)CC1
Q. Between item a and item b , which reported pEC50 is smaller? Pick one; state its label.
A. a

----------
test: Mouse pharmacokinetics (oral gavage / intravenous); format: in vivo, mice; conditions: 30 mg/kg oral gavage
recordedEndpoint: Cmax (µM)

Example compounds with recorded Cmax:
compound	Cmax, µM
CC(C)N1CCN(c2ccc(Nc3ncc4cc5n(c4n3)C3(CCCCC3)CNC5=O)nc2)CC1 [Compound GG]	1.9
CN1CCN(c2ccc(Nc3ncc4cc5n(c4n3)C3(CCCCC3)CNC5=O)nc2)CC1 [Compound T]	2.5

A. O=C1NCC2(CCCCC2)n2c1cc1cnc(Nc3ccc(N4CCNCC4)cn3)nc12 [Compound Q]
B. O=C1NCC2(CCCCC2)n2c1cc1cnc(Nc3ccc(N4CCC(N5CCOCC5)CC4)cn3)nc12 [Compound U]
Q. // which entry has the larger Cmax value, A or B ? Your answer should be the label of the entry you select.
A. B

----------
molecular target: CDK4/CyclinD1 (Homo sapiens, UniProt P11802); test: CDK4/cyclinD1 kinase assay (Nanosyn, Caliper microfluidic kinase detection); type: biochemical; settings: Table 2; 12-point dose-response, ATP at Km (200 μM), 10 hr; read-out: CDK4/CycD1 IC50
Sequence (P11802 whole entry, species assumed): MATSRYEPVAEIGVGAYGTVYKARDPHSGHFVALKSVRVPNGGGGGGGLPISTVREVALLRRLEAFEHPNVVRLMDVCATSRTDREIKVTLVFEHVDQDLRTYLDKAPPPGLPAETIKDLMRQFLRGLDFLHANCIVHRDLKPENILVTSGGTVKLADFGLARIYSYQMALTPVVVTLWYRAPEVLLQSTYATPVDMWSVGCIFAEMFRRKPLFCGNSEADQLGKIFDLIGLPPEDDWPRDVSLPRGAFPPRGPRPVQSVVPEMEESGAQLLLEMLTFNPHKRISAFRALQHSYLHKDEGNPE
Sequence (P24385 whole entry partner, species assumed): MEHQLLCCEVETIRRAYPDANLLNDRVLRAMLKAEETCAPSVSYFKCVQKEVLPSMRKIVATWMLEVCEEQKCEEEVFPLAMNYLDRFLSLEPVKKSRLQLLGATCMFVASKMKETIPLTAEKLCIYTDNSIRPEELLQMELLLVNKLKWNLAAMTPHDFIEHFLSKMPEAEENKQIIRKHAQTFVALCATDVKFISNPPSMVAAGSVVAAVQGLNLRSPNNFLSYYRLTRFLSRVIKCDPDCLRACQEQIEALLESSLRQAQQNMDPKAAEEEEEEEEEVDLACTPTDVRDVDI
pIC50: −log10 of the molar value.
recordedEndpoint: pIC50

molecule	pIC50
C[C@@H]1CN(c2ccc(Nc3ncc4cc5n(c4n3)C3(CCCCC3)CNC5=O)nc2)C[C@H](C)N1	8.48
CC1(C)CN(c2ccc(Nc3ncc4cc5n(c4n3)C3(CCCCC3)CNC5=O)nc2)CCN1	8.70

P. CCC(C)CN1CCN(c2ccc(Nc3ncc4cc5n(c4n3)C3(CCCC3)CNC5=O)nc2)CC1 (centres unmarked) [AAA]
Q. CC(C)(C)CCN1CCN(c2ccc(Nc3ncc4cc5n(c4n3)C3(CCCC3)CNC5=O)nc2)CC1
Q. Recorded pIC50 values differ for P and Q ; which one is higher? Lab note: record the label of whichever item you select.
A. Q
(Q: 8.89, P: 8.64)

1. CC1CN(c2ccc(Nc3ncc4cc5n(c4n3)C3(CCCCC3)CNC5=O)nc2)CCN1CC(C)(C)O (centres unmarked)
2. O=C1NCC2(CCCCC2)n2c1cc1cnc(Nc3ccc(N4CCC(N5CCCCC5)CC4)cn3)nc12
Q. Of 1 and 2 , which one carries the higher reported pIC50? // output: label of the selected item
A. 2
(2: 9.00, 1: 8.57)
